B1: MLH1 (parent)
chain: YAHQMVRTDSREQKLDAFLQPLSK

# Variants of: B1
# measurement.notes: protein stability index of a GFP-peptide fusion (GPS, HEK-293T) (PSI 1-6); higher = more stable;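 also: lentivirally expressed fusions sorted by FACS into six bins by GFP to DsRed ratio, PSI derived from sequencing read proportions per bin multiplied by bin number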
# experimental.setup: c terminus: a fixed tail appended
Label 1 (yes) for high-side protein stability index (at or above 3) and 0 (no) for low-side protein stability index (below it).

seq_string="YAHQDVRTDSREQKLDAFLQPLSK [M5D]" label_value="1 (yes)"
seq_string="YAHQMVRTDSREQWLDAFLQPLSK [K14W]" label_value="0 (no)"
seq_string="YAHQMVRTDSREQKLDNFLQPLSK [A17N]" label_value="1 (yes)"
seq_string="YAHQMVRTDSREQKLDAFLQHLSK [P21H]" label_value="0 (no)"
seq_string="YAHQMVRTDEREQKLDAFLQPLSK [S10E]" label_value="0 (no)"

Exercise: // inclusive: protein stability index at least 3? input: YAHQMVRDDSREQKLDAFLQPLSK [T8D]
Key: 0 (no)

Exercise: Does the variant YAHQMVRTDSREQKLVAFLQPLSK [D16V] have recorded protein stability index that is 3 or more?
Key: 0 (no)

Exercise: Could you please find out whether YAHQMVRTDSREQKLDAFLQMLSK [P21M] has protein stability index that meets 3 or exceeds it?
Key: 0 (no)
